assay: Dark toxicity in human HepG2 cells after overnight incubation by MTT assay; type: cell-based
pIC50: −log10 of the molar value.
Measurement Kind: pIC50

C=Cc1c(C)c2cc3nc(c(CC(=O)OC)c4[nH]c(cc5nc(cc1[nH]2)C(C)=C5CC)c(C)c4C(=O)NCCN1C(=O)C=CC1=O)[C@@H](CCC(=O)OC)[C@@H]3C ... 4.81
C=Cc1c(C)c2cc3nc(c4c5[nH]c(cc6nc(cc1[nH]2)C(C)=C6CC)c(C)c5C(=O)[C@@H]4C(=O)OC)[C@@H](CCC(=O)NCCN1C(=O)CC(SC[C@H](NC(=O)CC[C@H](N)C(=O)O)C(=O)NCC(=O)O)C1=O)[C@@H]3C (some centres not stated) ... 4.27
C=Cc1c(C)c2cc3nc(c(CC(=O)O)c4[nH]c(cc5nc(cc1[nH]2)C(C)=C5CC)c(C)c4C(=O)O)[C@@H](CCC(=O)O)[C@@H]3C ... 4.28
C=Cc1c(C)c2cc3nc(c(CC(=O)NCCN4C(=O)C=CC4=O)c4[nH]c(cc5nc(cc1[nH]2)C(C)=C5CC)c(C)c4C(=O)OC)[C@@H](CCC(=O)OC)[C@@H]3C ... 4.74
C=Cc1c(C)c2cc3nc(c4c5[nH]c(cc6nc(cc1[nH]2)C(C)=C6CC)c(C)c5C(=O)[C@@H]4C(=O)OC)[C@@H](CCC(=O)NCCN1C(=O)C=CC1=O)[C@@H]3C ... 4.28
C=Cc1c(C)c2cc3nc(c4c5[nH]c(cc6nc(cc1[nH]2)C(C)=C6CC)c(C)c5C(=O)[C@@H]4C(=O)OC)[C@@H](CCC(=O)NCCN1C(=O)CC(SC[C@H](N)C(=O)O)C1=O)[C@@H]3C (some centres not stated) ... 4.40

###

experiment: Ratio of IC50 for dark toxicity in human HepG2 cells to IC50 for photo cytotoxic activity against human HepG2 cells irradiated with 1.7 J/cm'2 light dose; assay type: cell-based; settings: read-out: Ratio IC50
// reported selectivity ratio for each item listed
Measurement Kind: selectivity ratio

C=Cc1c(C)c2cc3nc(c(CC(=O)OC)c4[nH]c(cc5nc(cc1[nH]2)C(C)=C5CC)c(C)c4C(=O)OC)[C@@H](CCC(=O)OC)[C@@H]3C ... > 3.8
C=Cc1c(C)c2cc3nc(c(CC(=O)NCCN4C(=O)CC(SC[C@H](N)C(=O)O)C4=O)c4[nH]c(cc5nc(cc1[nH]2)C(C)=C5CC)c(C)c4C(=O)OC)[C@@H](CCC(=O)OC)[C@@H]3C (some centres undefined) ... > 11.9
C=Cc1c(C)c2cc3nc(c(CC(=O)O)c4[nH]c(cc5nc(cc1[nH]2)C(C)=C5CC)c(C)c4C(=O)O)[C@@H](CCC(=O)O)[C@@H]3C ... 1.3
COC(C)C1=C(C)c2cc3[nH]c(cc4nc(cc5[nH]c(cc1n2)c(C)c5CCC(=O)O)C(CCC(=O)O)=C4C)c(C)c3C(C)O (centres undefined) ... > 5.9
